- measurement description: In vitro human microsomal stability assay
- Type: in vitro ADME
- experimental conditions: human, 0.5 h, 0.5 μM, pH 7.4
measurement name: HUMAN MICROSOMAL STABILITY (% REMAINING AFTER 30 MINUTES)

The examples below pair each entry with its known result.
compound	value measured
N[C@@H]1CCC[C@H]1[C@@H](O)C1(c2cccc(C(F)(F)F)c2)CCC1 [Example 227]	>85%
N[C@H]1CCC[C@@H]1[C@H](O)C1(c2ccc(Cl)cc2)CCC1 [Example 225]	>85%
OC(C1CCCc2cccnc21)C1(c2ccc(F)c(F)c2)CCC1 (stereo not drawn) [Example 170]	<0.01%
OC1CC(c2ccc(Cl)c(Cl)c2)(C(O)c2ccccn2)C1 (single isomer, unassigned) [Example 118]	>85%
OC(C1CCCc2cccnc21)C1(c2ccc(Cl)c(Cl)c2)CCC1 (single isomer, unassigned) [Example 182]	<0.01%

[in] Requested field: HUMAN MICROSOMAL STABILITY (% REMAINING AFTER 30 MINUTES). Item: OC(c1ccccn1)C1(c2ccccc2OC(F)(F)F)CCNCC1 (stereo not drawn) [Example 142]
[out] >85%

All figures here come from patent US8772500B2.
